# system: Muscarinic acetylcholine receptor M3 (Homo sapiens, UniProt P20309)
# Sequence (P20309 whole entry): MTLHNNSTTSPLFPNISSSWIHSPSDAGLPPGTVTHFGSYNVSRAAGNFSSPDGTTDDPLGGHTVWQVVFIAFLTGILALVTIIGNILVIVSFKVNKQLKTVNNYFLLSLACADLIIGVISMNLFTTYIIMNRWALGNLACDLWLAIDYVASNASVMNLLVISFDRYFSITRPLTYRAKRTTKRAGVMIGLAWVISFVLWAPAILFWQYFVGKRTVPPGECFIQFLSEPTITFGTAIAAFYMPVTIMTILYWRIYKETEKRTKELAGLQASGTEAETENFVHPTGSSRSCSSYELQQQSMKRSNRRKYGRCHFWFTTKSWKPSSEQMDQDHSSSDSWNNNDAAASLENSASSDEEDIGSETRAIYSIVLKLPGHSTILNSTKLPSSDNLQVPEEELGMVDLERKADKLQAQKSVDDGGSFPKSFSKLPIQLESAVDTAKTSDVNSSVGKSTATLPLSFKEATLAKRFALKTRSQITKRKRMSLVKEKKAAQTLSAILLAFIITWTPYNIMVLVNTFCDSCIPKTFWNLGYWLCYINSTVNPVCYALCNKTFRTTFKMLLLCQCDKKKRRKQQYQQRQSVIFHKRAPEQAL
# procedure.details: Displacement of [3H]NMS from recombinant human M3 receptor expressed in CHO-K1 cells after 16 hrs by SPA method
measurement.type: IC50 (nM)
// note: answer is a bare numeric in nM

Task item: State its IC50 on Muscarinic acetylcholine receptor M3 (Homo sapiens, UniProt P20309): O=C(C[N+]12CCC(CC1)[C@@H](OC(=O)C1(C3=CC=CC3)CCCCCC1)C2)Nc1ccncc1
Reply: 2.51

Task item: Quick check: IC50 on Muscarinic acetylcholine receptor M3 (Homo sapiens, UniProt P20309), item O=C(C[N+]12CCC(CC1)[C@@H](OC(=O)C1(C3=CC=CC3)CCCCCC1)C2)Nc1cccnn1 ?
Reply: 0.158

Task item: Recall the recorded IC50 for Cn1ccc(CCC[N+]23CCC(CC2)[C@@H](OC(=O)C2(C4=CC=CC4)CCCCCC2)C3)n1 with Muscarinic acetylcholine receptor M3 (Homo sapiens, UniProt P20309) and state it.
Reply: 0.501

Task item: Requested read-out IC50, target or system Muscarinic acetylcholine receptor M3 (Homo sapiens, UniProt P20309), entry Cc1ccc(CCC[N+]23CCC(CC2)[C@@H](OC(=O)C2(C4=CC=CC4)CCCCCC2)C3)cn1
Reply: 0.158
